// reported Ki per item
- system_tested: Serine protease 1 (Homo sapiens, UniProt P07477)
- Sequence (P07477 whole entry): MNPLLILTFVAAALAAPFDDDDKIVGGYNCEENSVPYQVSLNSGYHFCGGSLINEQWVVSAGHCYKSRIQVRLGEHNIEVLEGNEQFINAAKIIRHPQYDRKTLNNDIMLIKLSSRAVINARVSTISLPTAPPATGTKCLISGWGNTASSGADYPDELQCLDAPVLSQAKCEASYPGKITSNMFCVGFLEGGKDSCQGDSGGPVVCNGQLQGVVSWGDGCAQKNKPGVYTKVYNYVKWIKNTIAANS
- method_description: Binding affinity against human trypsin
experimental_endpoint: Ki (µM)

- Cc1ccc(CNC(=O)[C@H](NC(=O)c2cccc(C(=N)N)c2)c2ccccc2)cc1: 4.9
- N=C(N)c1cccc(C(=O)N[C@H](Cc2ccccc2)C(=O)NCC2CCC(CN)CC2)c1 (some centres undefined): 17.4
- N=C(N)c1cccc(C(=O)N[C@@H](C(=O)N2CCN(c3ccncc3)CC2)c2ccccc2)c1: 0.56
- N=C(N)c1cccc(C(=O)N[C@@H](C(=O)N2CCC(C(=O)c3ccc(F)cc3)CC2)c2ccccc2)c1: 0.54
- N=C(N)c1cccc(C(=O)NC(C(=O)NCC2CCC(CN)CC2)c2ccc(-c3ccccc3)cc2)c1 (centres undefined): 1.1
- N=C(N)c1cccc(C(=O)NC(C(=O)NCC2CCC(CN)CC2)c2cccc(Cl)c2)c1 (stereo in doubt; 9): 3.9
- N=C(N)c1cccc(C(=O)N[C@@H](C(=O)NCCc2ccccc2)c2ccccc2)c1: 3.3
- N=C(N)c1cccc(C(=O)NC(C(=O)NCC2CCC(CN)CC2)c2ccc(Cl)cc2)c1 (centres undefined): 6
- N=C(N)c1cccc(C(=O)NC(C(=O)NCC2CCC(CN)CC2)c2cccc3ccccc23)c1 (centres undefined): 2.1

====

- system_tested: UniProt P07477
Response field label: string, one of t (Ki strictly below 4 µM) or f.

• N=C(N)c1cccc(C(=O)N[C@@H](C(=O)N2CCC(C(=O)c3ccccc3)CC2)c2ccccc2)c1 = t
• N=C(N)c1cccc(C(=O)N[C@@H](C(=O)NCCCc2ccccc2)c2ccccc2)c1 = t
• CSCC[C@H](NC(=O)c1cccc(C(=N)N)c1)C(=O)NCC1CCC(CN)CC1 (stereo partly specified) = f
• CC(C)[C@@H](NC(=O)c1cccc(C(=N)N)c1)C(=O)NCC1CCC(CN)CC1 (stereo partly specified) = f
• N=C(N)c1cccc(C(=O)N[C@@H](C(=O)NCc2ccccc2)c2ccccc2)c1 = f
• N=C(N)c1cccc(C(=O)N[C@H](C(=O)NCC2CCC(CN)CC2)C2CCCCC2)c1 (stereo partly specified) = t

====

- system_tested: Coagulation factor X (Homo sapiens, UniProt P00742)
- Sequence (P00742 41-179 limits assumed): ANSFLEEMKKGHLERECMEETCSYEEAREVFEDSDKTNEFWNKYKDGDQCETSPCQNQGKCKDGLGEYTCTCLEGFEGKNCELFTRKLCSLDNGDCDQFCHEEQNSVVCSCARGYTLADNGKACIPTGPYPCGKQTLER
- Sequence (P00742 235-488 limits assumed): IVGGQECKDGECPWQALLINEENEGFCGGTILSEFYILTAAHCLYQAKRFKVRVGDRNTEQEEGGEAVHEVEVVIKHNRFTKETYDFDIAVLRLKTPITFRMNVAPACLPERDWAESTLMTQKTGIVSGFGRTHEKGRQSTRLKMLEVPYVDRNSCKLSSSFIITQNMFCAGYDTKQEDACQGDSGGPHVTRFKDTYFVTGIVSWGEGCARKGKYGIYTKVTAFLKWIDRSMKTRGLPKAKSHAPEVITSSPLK
experimental_endpoint: log10 of Ki (log10 of the value in nM)

- N=C(N)c1cccc(C(=O)N[C@@H](C(=O)N2CCN(c3ccncc3)CC2)c2ccccc2)c1: 1.11
- CSCC[C@@H](NC(=O)c1cccc(C(=N)N)c1)C(=O)NCC1CCC(CN)CC1 (stereo partly drawn): 3.36
- N=C(N)c1cccc(C(=O)N[C@@H](C(=O)N2CCN(c3ccc(F)cc3)CC2)c2ccccc2)c1: 1.18
- N=C(N)c1cccc(C(=O)N[C@@H](C(=O)N2CCN(Cc3ccccc3)CC2)c2ccccc2)c1: 2.08
- N=C(N)c1cccc(C(=O)N[C@@H](C(=O)N2CCC(C(=O)c3ccc(F)cc3)CC2)c2ccccc2)c1: 1.00
- N=C(N)c1cccc(C(=O)NC(C(=O)NCC2CCC(CN)CC2)c2cccc(Cl)c2)c1 (stereo in doubt; 11): 2.48
- N=C(N)c1cccc(C(=O)N[C@H](C(=O)NCC2CCC(CN)CC2)C2CCCCC2)c1 (stereo partly drawn): 3.89
- N=C(N)c1cccc(C(=O)N[C@@H](C(=O)NCC2CCC(CN)CC2)C2CCCCC2)c1 (stereo partly drawn): 2.70
